- Experiment summary: AUC (0 to t) in mouse at 10 mg/kg, po after 24 hrs
- Assay type: ADME, organism-based
- Parameters: time < 24 hr, dose 10 mg/kg, route oral
- Experimental conditions: plasma
Quantity: AUC(0-t) at 24 h (µM·h)

COc1cc(OC)c(/C=C/S(=O)(=O)Cc2ccc(OC)c(NS(C)(=O)=O)n2)c(OC)c1 :: 5.6

I: COc1cc(OC)c(/C=C/S(=O)(=O)Cc2cnc(OC)c(NS(C)(=O)=O)c2)c(OC)c1
II: COc1cc(OC)c(/C=C/S(=O)(=O)Cc2ccc(OC)c(NCC(=O)[O-])c2)c(OC)c1.[Na+] [RIGOSERTIB SODIUM]
q: Sorting ascending by AUC(0-t) at 24 h, which comes first: I or II ? Output the label that corresponds to your choice.
a: II
